Measurement record for S. pyogenes 0542; quantity recorded: MIC.

CC[C@H]1OC(=O)[C@H](C)[C@@H](O[C@H]2C[C@@](C)(OC)[C@@H](OC(=O)CCOCCOCCNc3cc4c(=O)c(C(=O)O)cn(C5CC5)c4cc3Cl)[C@H](C)O2)[C@H](C)[C@@H](O[C@@H]2O[C@H](C)C[C@H](N(C)C)[C@H]2O)[C@](C)(OC)C[C@@H](C)C(=O)[C@H](C)[C@H]2NC(=O)O[C@@]21C; ≤ 1 µg/mL
CC[C@H]1OC(=O)[C@H](C)[C@@H](O[C@H]2C[C@@](C)(OC)[C@@H](OC(=O)CCOCCOCCNc3cc4c(=O)c(C(=O)O)cn(C5CC5)c4cc3N(C)C)[C@H](C)O2)[C@H](C)[C@@H](OC2O[C@H](C)C[C@H](N(C)C)[C@H]2O)[C@](C)(O)C[C@@H](C)CN(C)[C@H](C)[C@@H](O)[C@]1(C)O (stereo partly drawn); ≤ 1 µg/mL

Entry under review: CC[C@H]1OC(=O)[C@H](C)[C@@H](OC2C[C@@](C)(OC)[C@@H](OC(=O)CNC(=O)CCOCCNc3c(F)cc4c(=O)c(C(=O)O)cn(C5CC5)c4c3OC)[C@H](C)O2)[C@H](C)[C@@H](O[C@@H]2O[C@H](C)C[C@H](N(C)C)[C@H]2O)[C@](C)(O)C[C@@H](C)CN(C)[C@H](C)[C@@H]2OC(=O)O[C@]12C (stereo partly drawn) . Reported MIC?
≤ 1 µg/mL

Attribution: patent US20080255060A1
